Values compiled from ChEMBL document CHEMBL5120871.

- Target or system: microRNA 21
- Test description: Inhibition of miR-21 in human HeLa cells assessed as increase in luciferase activity measured after 48 hrs by bright Glo-luciferase reporter gene assay
- Assay type: cell-based
pEC50: −log10 of the molar value.
Endpoint: pEC50

1) C#CCNC(=O)c1ccc(/N=N/c2ccccc2)cc1    5.70
